assayOverview: yeast display, Sf9 membrane polyspecificity reagent, FACS + sequencing; frameworks hold sequencing errors
measuredMetric: polyreactivity (PSR sort gate)

Worked set:
residues	polyreactivity (PSR sort gate)
QVQLVESGGGLVQAGGSLRLSCAASGRIFRWYGMGWYRQAPGKERELVAAITSGGSTHYADSVKGRFTISRDNAKNTVYLQMNSLKPEDTAVYYCAADPYHLQTRFSGLAEFYYWGQGTQVTVSS	low polyreactivity
QVQLVESCGGLVQARGSLRLSCAACGRIFIRYALGWYSQAPGTERELVAAITRGGSTYYADSVKGRFTISRDNAKITVFLQMNSVKPEDTAVYYCAGRVGYPYYYWGQGTEVTVSS	high polyreactivity
QVQLVESGGGLVQAGGSLRLSCAASGLSLDVNVMGWYRPAPGKERELVAGIRSDSRTNYADSVKGRFTISRDNAKNTVYLQMNRLKPEDTAVYYCATRDKYISYYTYPYYSWGQGTQVTVSS	low polyreactivity
QVQLVESGGGLVQAGGSLRLSCAASGLIFANNAMGWYRQAPGKERELVAVISRGGRTYYADSVKGRFTISRDNAKNTVYLQMNSLKPEDTAVYYCAKPVLVGLGARYVYWGQGTQVTVSS	high polyreactivity

Reported polyreactivity (PSR sort gate), sequence "QVQLVESGGGLVQAGGSLRLSCAASGSTFTDYAMGWYRQAPGKERELVAAITKSGGSTYYADSVKGRFTISRDNAKNTVYLQMNSLKPEDTAVYYCAAGNHRRPADYGSWGQGTQVTVSS" : ____
low polyreactivity
